test system: mice bearing PSMA-expressing LNCAP cancer xenografts; experiment: Biodistribution of 68Ga-labeled compounds; assay type: in vivo; conditions: 1 h post-injection
testReadout: Seminal uptake (% ID/g)
The answer is to be given in % ID/g; state only the numeric part.

Lookup: Name the recorded Seminal uptake for O=C([O-])CN1CCN(CC(=O)[O-])CCN(CC(=O)NCC2CCC(C(=O)NC(Cc3ccc4ccc5cccc6ccc3c4c56)C(=O)NCCCCC(NC(=O)NC(CCC(=O)O)C(=O)O)C(=O)O)CC2)CCN(CC(=O)[O-])CC1.[68Ga+3] (stereo not shown) [^68Ga-HTK03029] .
Found: 6.74

Lookup: Record: CCCCCCC(NC(=O)C1CCC(CNC(=O)CN2CCN(CC(=O)[O-])CCN(CC(=O)[O-])CCN(CC(=O)[O-])CC2)CC1)C(=O)NCCCCC(NC(=O)NC(CCC(=O)O)C(=O)O)C(=O)O.[68Ga+3] (stereo not shown) [^68Ga-HTK03026]
Found: 0.43

Lookup: Record: O=C([O-])CN1CCN(CC(=O)[O-])CCN(CC(=O)NCC2CCC(C(=O)NC(Cc3ccc4cc5ccccc5cc4c3)C(=O)NCCCCC(NC(=O)NC(CCC(=O)O)C(=O)O)C(=O)O)CC2)CCN(CC(=O)[O-])CC1.[68Ga+3] (stereo not shown) [^68Ga-HTK03027]
Found: 10.6

Lookup: Record: O=C([O-])CN1CCN(CC(=O)[O-])CCN(CC(=O)NCC2CCC(C(=O)NC(Cc3c4ccccc4cc4ccccc34)C(=O)NCCCCC(NC(=O)NC(CCC(=O)O)C(=O)O)C(=O)O)CC2)CCN(CC(=O)[O-])CC1.[68Ga+3] (stereo not shown) [^68Ga-HTK03041]
Found: 1.03

Lookup: Record: O=C([O-])CN1CCN(CC(=O)[O-])CCN(CC(=O)NCCCC[C@H](NC(=O)CNC(=O)CCCc2ccc(Cl)cc2)C(=O)NC[C@H]2CC[C@H](C(=O)N[C@@H](Cc3ccc4ccccc4c3)C(=O)NCCCC[C@H](NC(=O)N[C@@H](CCC(=O)O)C(=O)O)C(=O)O)CC2)CCN(CC(=O)[O-])CC1.[68Ga+3] [^68Ga-HTK03055]
Found: 1.19

Lookup: Record: O=C([O-])CN1CCN(CC(=O)[O-])CCN(CC(=O)NCCCC[C@H](NC(=O)CNC(=O)CCCc2ccc(F)cc2)C(=O)NC[C@H]2CC[C@H](C(=O)N[C@@H](Cc3ccc4ccccc4c3)C(=O)NCCCC[C@H](NC(=O)N[C@@H](CCC(=O)O)C(=O)O)C(=O)O)CC2)CCN(CC(=O)[O-])CC1.[68Ga+3] [^68Ga-HTK03085]
Found: 1.42

Lookup: Record: O=C([O-])CN1CCN(CC(=O)[O-])CCN(CC(=O)NCCCC[C@H](NC(=O)CNC(=O)CCCc2ccc(I)cc2)C(=O)NC[C@H]2CC[C@H](C(=O)N[C@@H](Cc3ccc4ccccc4c3)C(=O)NCCCC[C@H](NC(=O)N[C@@H](CCC(=O)O)C(=O)O)C(=O)O)CC2)CCN(CC(=O)[O-])CC1.[68Ga+3] [^68Ga-HTK03024]
Found: 1.27

---

Tested on: mice bearing PSMA-expressing LNCAP cancer xenografts
Test: Biodistribution of 68Ga-labeled compounds
Assay type: in vivo
Conditions: 3 h post-injection
Experimental: Imaging and biodistribution experiments were performed using NODSCID 1L2RyKO male mice. Mice were anesthetized by inhalation with 2% isoflurane in oxygen, and implanted subcutaneously with 1×10^7 LNCaP cells behind left shoulder. […] For biodistribution studies, the mice were injected with the radiotracer as described above. […] The collected organs/tissues were weighed and counted using an automatic gamma counter. […]
Kindly state Liver uptake for each of the entries shown.
The answer is to be given in % ID/g; state only the numeric part.

Lookup: What measured Liver uptake is associated with Cc1ccc(CCCC(=O)NCC(=O)N[C@@H](CCCCNC(=O)CN2CCN(CC(=O)[O-])CCN(CC(=O)[O-])CCN(CC(=O)[O-])CC2)C(=O)NC[C@H]2CC[C@H](C(=O)N[C@@H](Cc3ccc4ccccc4c3)C(=O)NCCCC[C@H](NC(=O)N[C@@H](CCC(=O)O)C(=O)O)C(=O)O)CC2)cc1.[68Ga+3] [^68Ga-HTK03090] on mice bearing PSMA-expressing LNCAP cancer xenografts?
Found: 2.73

Lookup: Record: O=C([O-])CN1CCN(CC(=O)[O-])CCN(CC(=O)NCCCC[C@H](NC(=O)CNC(=O)CCCc2ccc(F)cc2)C(=O)NC[C@H]2CC[C@H](C(=O)N[C@@H](Cc3ccc4ccccc4c3)C(=O)NCCCC[C@H](NC(=O)N[C@@H](CCC(=O)O)C(=O)O)C(=O)O)CC2)CCN(CC(=O)[O-])CC1.[68Ga+3] [^68Ga-HTK03085]
Found: 0.61

---

tested on: mice bearing PSMA-expressing LNCAP cancer xenografts; assay: Biodistribution of 68Ga-labeled compounds; format: in vivo; conditions: 1 h post-injection
testReadout: Pancreas uptake (% ID/g)
The answer is to be given in % ID/g; state only the numeric part.

Lookup: Name the recorded Pancreas uptake for CCCCCCC(NC(=O)C1CCC(CNC(=O)CN2CCN(CC(=O)[O-])CCN(CC(=O)[O-])CCN(CC(=O)[O-])CC2)CC1)C(=O)NCCCCC(NC(=O)NC(CCC(=O)O)C(=O)O)C(=O)O.[68Ga+3] (stereo not drawn) [^68Ga-HTK03026] .
Found: 0.71

Lookup: Record: O=C([O-])CN1CCN(CC(=O)[O-])CCN(CC(=O)NCC2CCC(C(=O)NC(Cc3ccc4ccc5cccc6ccc3c4c56)C(=O)NCCCCC(NC(=O)NC(CCC(=O)O)C(=O)O)C(=O)O)CC2)CCN(CC(=O)[O-])CC1.[68Ga+3] (stereo not drawn) [^68Ga-HTK03029]
Found: 0.94

Lookup: Record: O=C([O-])CN1CCN(CC(=O)[O-])CCN(CC(=O)NCCCC[C@H](NC(=O)CNC(=O)CCc2ccccc2)C(=O)NC[C@H]2CC[C@H](C(=O)N[C@@H](Cc3ccc4ccccc4c3)C(=O)NCCCC[C@H](NC(=O)N[C@@H](CCC(=O)O)C(=O)O)C(=O)O)CC2)CCN(CC(=O)[O-])CC1.[68Ga+3] [^68Ga-HTK03082]
Found: 0.47

Lookup: Record: Nc1ccc(CCCC(=O)NCC(=O)N[C@@H](CCCCNC(=O)CN2CCN(CC(=O)[O-])CCN(CC(=O)[O-])CCN(CC(=O)[O-])CC2)C(=O)NC[C@H]2CC[C@H](C(=O)N[C@@H](Cc3ccc4ccccc4c3)C(=O)NCCCC[C@H](NC(=O)N[C@@H](CCC(=O)O)C(=O)O)C(=O)O)CC2)cc1.[68Ga+3] [^68Ga-HTK03087]
Found: 0.45

Lookup: Record: O=C([O-])CN1CCN(CC(=O)[O-])CCN(CC(=O)NCCCC[C@H](NC(=O)CNC(=O)CCCc2ccc(Cl)cc2)C(=O)NC[C@H]2CC[C@H](C(=O)N[C@@H](Cc3ccc4ccccc4c3)C(=O)NCCCC[C@H](NC(=O)N[C@@H](CCC(=O)O)C(=O)O)C(=O)O)CC2)CCN(CC(=O)[O-])CC1.[68Ga+3] [^68Ga-HTK03055]
Found: 2.02

Lookup: Record: O=C([O-])CN1CCN(CC(=O)[O-])CCN(CC(=O)NCCCC[C@H](NC(=O)CNC(=O)CCCc2ccc(F)cc2)C(=O)NC[C@H]2CC[C@H](C(=O)N[C@@H](Cc3ccc4ccccc4c3)C(=O)NCCCC[C@H](NC(=O)N[C@@H](CCC(=O)O)C(=O)O)C(=O)O)CC2)CCN(CC(=O)[O-])CC1.[68Ga+3] [^68Ga-HTK03085]
Found: 0.86

---

Test system: mice bearing PSMA-expressing LNCAP cancer xenografts
Assay: Biodistribution of 68Ga-labeled compounds
Type: in vivo
Conditions: 1 h post-injection
Protocol: Imaging and biodistribution experiments were performed using NODSCID 1L2RyKO male mice. Mice were anesthetized by inhalation with 2% isoflurane in oxygen, and implanted subcutaneously with 1×10^7 LNCaP cells behind left shoulder. […] For biodistribution studies, the mice were injected with the radiotracer as described above. […] The collected organs/tissues were weighed and counted using an automatic gamma counter. […]
Kindly state Kidneys uptake for each of the entries shown.
The answer is to be given in % ID/g; state only the numeric part.

Lookup: What measured Kidneys uptake is associated with O=C([O-])CN1CCN(CC(=O)[O-])CCN(CC(=O)NCC2CCC(C(=O)NC(Cc3ccc4ccc5cccc6ccc3c4c56)C(=O)NCCCCC(NC(=O)NC(CCC(=O)O)C(=O)O)C(=O)O)CC2)CCN(CC(=O)[O-])CC1.[68Ga+3] (stereo not shown) [^68Ga-HTK03029] on mice bearing PSMA-expressing LNCAP cancer xenografts?
Found: 198

Lookup: Record: O=C([O-])CN1CCN(CC(=O)[O-])CCN(CC(=O)NCCCC[C@H](NC(=O)CNC(=O)CCCc2ccc(Cl)cc2)C(=O)NC[C@H]2CC[C@H](C(=O)N[C@@H](Cc3ccc4ccccc4c3)C(=O)NCCCC[C@H](NC(=O)N[C@@H](CCC(=O)O)C(=O)O)C(=O)O)CC2)CCN(CC(=O)[O-])CC1.[68Ga+3] [^68Ga-HTK03055]
Found: 31.1

Lookup: Record: O=C([O-])CN1CCN(CC(=O)[O-])CCN(CC(=O)NCC2CCC(C(=O)NC(Cc3c4ccccc4cc4ccccc34)C(=O)NCCCCC(NC(=O)NC(CCC(=O)O)C(=O)O)C(=O)O)CC2)CCN(CC(=O)[O-])CC1.[68Ga+3] (stereo not shown) [^68Ga-HTK03041]
Found: 170

Lookup: Record: COc1ccc(CCCC(=O)NCC(=O)N[C@@H](CCCCNC(=O)CN2CCN(CC(=O)[O-])CCN(CC(=O)[O-])CCN(CC(=O)[O-])CC2)C(=O)NC[C@H]2CC[C@H](C(=O)N[C@@H](Cc3ccc4ccccc4c3)C(=O)NCCCC[C@H](NC(=O)N[C@@H](CCC(=O)O)C(=O)O)C(=O)O)CC2)cc1.[68Ga+3] [^68Ga-HTK03086]
Found: 54.7

Lookup: Record: CCCCCCC(NC(=O)C1CCC(CNC(=O)CN2CCN(CC(=O)[O-])CCN(CC(=O)[O-])CCN(CC(=O)[O-])CC2)CC1)C(=O)NCCCCC(NC(=O)NC(CCC(=O)O)C(=O)O)C(=O)O.[68Ga+3] (stereo not shown) [^68Ga-HTK03026]
Found: 68.5

Lookup: Record: O=C([O-])CN1CCN(CC(=O)[O-])CCN(CC(=O)NCCCC[C@H](NC(=O)CNC(=O)CCc2ccccc2)C(=O)NC[C@H]2CC[C@H](C(=O)N[C@@H](Cc3ccc4ccccc4c3)C(=O)NCCCC[C@H](NC(=O)N[C@@H](CCC(=O)O)C(=O)O)C(=O)O)CC2)CCN(CC(=O)[O-])CC1.[68Ga+3] [^68Ga-HTK03082]
Found: 81.6

Lookup: Record: Cc1ccc(CCCC(=O)NCC(=O)N[C@@H](CCCCNC(=O)CN2CCN(CC(=O)[O-])CCN(CC(=O)[O-])CCN(CC(=O)[O-])CC2)C(=O)NC[C@H]2CC[C@H](C(=O)N[C@@H](Cc3ccc4ccccc4c3)C(=O)NCCCC[C@H](NC(=O)N[C@@H](CCC(=O)O)C(=O)O)C(=O)O)CC2)cc1.[68Ga+3] [^68Ga-HTK03090]
Found: 24.3
